Attribution: ChEMBL document CHEMBL1158496

# EXPERIMENTAL DETAILS: Displacement of [3H]colchicine from tubulin at 1 uM […]
RESULT TYPE: Activity
Output should be the measured figure followed by the unit it is expressed in.

// lookup Activity for O=c1cc(-c2coc3ccccc23)[nH]c2cc3c(cc12)OCO3 39%

Quick one: O=c1cc(-c2cccc3ccccc23)[nH]c2cc3c(cc12)OCO3 33%

Record: COc1ccc(/C=C\c2cc(OC)c(OC)c(OC)c2)cc1O 91%

Quick one: O=c1cc(-c2csc3ccccc23)[nH]c2cc3c(cc12)OCO3 25%

* * *

# Tested on: DU-145
# EXPERIMENTAL DETAILS: Cytotoxicity against human DU145 cells by SRB assay
# Assay type: functional, cell-based
pIC50: −log10 of the molar value.
RESULT TYPE: pIC50

// pIC50 lookup, key: O=c1cc(-c2ccc3ccccc3c2)[nH]c2cc3c(cc12)OCO3 < 6.00

What about this compound? O=c1cc(-c2ccnc3ccccc23)[nH]c2cc3c(cc12)OCO3 < 5.30

Same question, O=c1cc(-c2cc3ccccc3s2)[nH]c2cc3c(cc12)OCO3 this time < 6.00

Now the compound O=c1cc(-c2csc3ccccc23)[nH]c2cc3c(cc12)OCO3 < 6.60

Continue with O=c1cc(-c2cc3ccccc3o2)[nH]c2cc3c(cc12)OCO3 < 6.00

Param item: O=c1cc(-c2cccc3ncccc23)[nH]c2cc3c(cc12)OCO3 < 5.00

Again, but for O=c1cc(-c2ccc3ccccc3n2)[nH]c2cc3c(cc12)OCO3 < 5.30

Entry O=c1cc(-c2coc3ccccc23)[nH]c2cc3c(cc12)OCO3 please 5.73

Next: O=c1cc(-c2cnc3ccccc3c2)[nH]c2cc3c(cc12)OCO3 < 7.00

Can you check O=c1cc(-c2cccc3ccccc23)[nH]c2cc3c(cc12)OCO3 next? 6.89

* * *

# Tested on: HCT-116
# EXPERIMENTAL DETAILS: Cytotoxicity against human HCT116 cells by MTT assay
# Type: functional, cell-based
RESULT TYPE: pIC50
# pIC50 is unitless: minus log10 of the molar concentration; print number only

What does the data say about its pIC50? Entry: O=c1cc(-c2coc3ccccc23)[nH]c2cc3c(cc12)OCO3 7.30

Now give it for O=c1cc(-c2cccc3cc4ccccc4cc23)[nH]c2cc3c(cc12)OCO3 too. 5.80

* * *

Record form. Attribute: pIC50. Fill in for each entry.
# System: HCT-116
# EXPERIMENTAL DETAILS: Cytotoxicity against human HCT116 cells by MTT assay
# Type: functional, cell-based
pIC50: −log10 of the molar value.

Which pIC50 value belongs to O=c1cc(-c2cccc3ncccc23)[nH]c2cc3c(cc12)OCO3 ? < 5.00

What do you get for O=c1cc(-c2ccc3ccccc3n2)[nH]c2cc3c(cc12)OCO3 ? < 5.30

// repeat for O=c1cc(-c2cnc3ccccc3c2)[nH]c2cc3c(cc12)OCO3 and report < 7.00
